Hello, the source for this data is ChEMBL document CHEMBL5058577, in case you need it.

System: HEK-293T
ASSAY SUMMARY: Multiplex assay against HEK293T
Assay type: toxicity, cell-based
PROTOCOL CONDITIONS: human, 48 h, 10 µM, compound concentration 10 uM, replicate 2
MEASURE: Population Apoptotic (%)

molecule="O=C(NCCN1CCC(n2c(=O)[nH]c3cc(Cl)ccc32)CC1)c1ccc(F)cc1 [HALOPEMIDE]" measure="Population Apoptotic (%)" value=60
molecule=Cc1cccc(NC(=O)CN2CCC(c3ccccn3)CC2)c1.Cl.Cl measure="Population Apoptotic (%)" value=48
molecule="COC[C@@H](c1ccc(C(F)(F)F)cc1)N1CCN(C2(C)CCN(C(=O)c3c(C)ncnc3C)CC2)C[C@@H]1C.O=C(O)/C=C\\C(=O)O [VICRIVIROC MALEATE]" measure="Population Apoptotic (%)" value=53
molecule=CCCCC1=NC2(CCCC2)C(=O)N1Cc1ccc(-c2ccccc2-c2nnn[nH]2)cc1 measure="Population Apoptotic (%)" value=46
molecule=CN1CCN(c2cc(-c3ccccc3)nc(N)n2)CC1 measure="Population Apoptotic (%)" value=27
molecule=CN(C)C(=O)Cn1cc(-c2ccc(-c3cncc4ccccc34)cc2)cn1 measure="Population Apoptotic (%)" value=59
molecule=Cc1noc(-c2ccc(-c3ccc(CC(=O)O)cc3)cc2)c1NC(=O)O[C@H](C)c1ccccc1Cl measure="Population Apoptotic (%)" value=46
molecule=CC(C)COc1ccc(CNC(=O)N(Cc2ccc(F)cc2)C2CCN(C)CC2)cc1 measure="Population Apoptotic (%)" value=61
molecule="Cl.NCCc1ccc(O)c(O)c1 [DOPAMINE HYDROCHLORIDE]" measure="Population Apoptotic (%)" value=17

====

System: HEK-293T
ASSAY SUMMARY: Multiplex assay against HEK293T
Type: toxicity, cell-based
PROTOCOL CONDITIONS: human, 12 h, 10 µM, compound concentration 10 uM, replicate 1
We begin with a simple list: items and their reported Population Mitotic Cells (%).
MEASURE: Population Mitotic Cells (%)

molecule=Cc1noc(-c2ccc(-c3ccc(CC(=O)O)cc3)cc2)c1NC(=O)O[C@H](C)c1ccccc1Cl endpoint_unit=% value=48
molecule="Cc1sc2c(c1C)C(c1ccc(Cl)cc1)=N[C@@H](CC(=O)NCCCCCCCCNC(=O)COc1cccc3c1C(=O)N(C1CCC(=O)NC1=O)C3=O)c1nnc(C)n1-2 (stereo not given in full)" endpoint_unit=% value=39
molecule="O=C(NCCN1CCC(n2c(=O)[nH]c3cc(Cl)ccc32)CC1)c1ccc(F)cc1 [HALOPEMIDE]" endpoint_unit=% value=60
molecule=CC(/C=C1\SC(=S)N(CCCC(=O)Nc2ccc(C(=O)O)c(O)c2)C1=O)=C\c1ccccc1 endpoint_unit=% value=56
molecule=Cc1c(CC(=O)O)c2cccnc2n1Cc1ccc(S(C)(=O)=O)cc1C(F)(F)F endpoint_unit=% value=66

====

Tested on: HEK-293T
ASSAY SUMMARY: Multiplex assay against HEK293T
Assay type: toxicity, cell-based
PROTOCOL CONDITIONS: human, 48 h, 1 µM, compound concentration 1 uM, replicate 1
We begin with a simple list: items and their reported Population Healthy Nuclei (%).
MEASURE: Population Healthy Nuclei (%)

compound="O=C(NCCN1CCC(n2c(=O)[nH]c3cc(Cl)ccc32)CC1)c1ccc(F)cc1 [HALOPEMIDE]" measure="Population Healthy Nuclei (%)" endpoint_unit=% value=79
compound="Cl.N=C(N)NC(=O)Cc1c(Cl)cccc1Cl [GUANFACINE HYDROCHLORIDE]" measure="Population Healthy Nuclei (%)" endpoint_unit=% value=78
compound=COc1cccc2c1c(NS(=O)(=O)c1ccc(Cl)s1)nn2Cc1cccc(CNC(=O)C(C)(C)O)c1 measure="Population Healthy Nuclei (%)" endpoint_unit=% value=83
compound=COc1ccccc1N1CCN(C[C@@H](C(=O)NC(C)(C)C)c2ccccc2)CC1.Cl.Cl measure="Population Healthy Nuclei (%)" endpoint_unit=% value=78
compound="CCCCCC(O)/C=C/[C@H]1C(=O)CC(O)C1C/C=C\\CCCC(=O)O (stereo partly specified)" measure="Population Healthy Nuclei (%)" endpoint_unit=% value=79
compound=O=C(CCCc1ccccc1)Nc1nc2ccccc2c(=O)s1 measure="Population Healthy Nuclei (%)" endpoint_unit=% value=82
compound=CC[C@@H](C)Nc1nc(C)nc2c(-c3ccc(OC)nc3C)c(C)nn12 measure="Population Healthy Nuclei (%)" endpoint_unit=% value=80
compound=CCCCC(=O)N(Cc1ccc(-c2ccccc2-c2nnn[nH]2)cc1)[C@H](C(=O)O)C(C)C measure="Population Healthy Nuclei (%)" endpoint_unit=% value=80
compound=Cc1onc(-c2ccccc2Cl)c1C(=O)N(C)c1ccc(Cl)cc1 measure="Population Healthy Nuclei (%)" endpoint_unit=% value=79
compound=CC(=O)Nc1cccc2c1c(Sc1ccc(Cl)cc1)c(C)n2CC(=O)O measure="Population Healthy Nuclei (%)" endpoint_unit=% value=78
compound=Cc1cccc(NC(=O)CN2CCC(c3ccccn3)CC2)c1.Cl.Cl measure="Population Healthy Nuclei (%)" endpoint_unit=% value=76
compound=CN[C@@H](C)C(=O)N[C@H](C(=O)N1CCC[C@H]1C(=O)Nc1snnc1-c1ccccc1)C1CCCCC1 measure="Population Healthy Nuclei (%)" endpoint_unit=% value=78
compound="Br.CS(=O)(=O)Nc1c(O)ccc2c1CCCC2C1=NCCN1 (stereo unspecified)" measure="Population Healthy Nuclei (%)" endpoint_unit=% value=78
compound=CCc1cc2cc(NS(=O)(=O)c3ccc(C#N)cc3)ccc2n(CC)c1=O measure="Population Healthy Nuclei (%)" endpoint_unit=% value=81
compound=CN(C)C(=O)Cn1cc(-c2ccc(-c3cncc4ccccc34)cc2)cn1 measure="Population Healthy Nuclei (%)" endpoint_unit=% value=74
compound=CC(C)COc1ccc(CNC(=O)N(Cc2ccc(F)cc2)C2CCN(C)CC2)cc1 measure="Population Healthy Nuclei (%)" endpoint_unit=% value=77
